Recorded measurements of pIC50, one per entry
Target: Norepinephrine transporter (Rattus norvegicus, UniProt Q9WTR4)
Sequence (Q9WTR4 whole entry): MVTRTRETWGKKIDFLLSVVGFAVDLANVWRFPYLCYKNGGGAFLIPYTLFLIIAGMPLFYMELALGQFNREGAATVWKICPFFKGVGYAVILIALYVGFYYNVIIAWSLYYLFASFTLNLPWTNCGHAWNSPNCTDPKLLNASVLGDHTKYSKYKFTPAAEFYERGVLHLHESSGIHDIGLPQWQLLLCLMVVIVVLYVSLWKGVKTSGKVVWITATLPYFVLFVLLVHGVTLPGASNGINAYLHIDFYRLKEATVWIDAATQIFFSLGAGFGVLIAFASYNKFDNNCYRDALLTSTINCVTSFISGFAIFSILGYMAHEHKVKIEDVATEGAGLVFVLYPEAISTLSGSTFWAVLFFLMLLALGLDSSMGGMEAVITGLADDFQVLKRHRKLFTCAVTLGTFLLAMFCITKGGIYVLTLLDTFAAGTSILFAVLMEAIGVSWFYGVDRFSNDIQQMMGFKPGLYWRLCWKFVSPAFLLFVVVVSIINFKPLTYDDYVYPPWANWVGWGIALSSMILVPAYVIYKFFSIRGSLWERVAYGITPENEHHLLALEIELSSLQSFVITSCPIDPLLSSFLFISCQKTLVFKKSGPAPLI
Assay: Inhibition of uptake of noradrenaline in rat brain hypothalamus
On this scale, pIC50 is minus log10 of a concentration expressed in M (mol/L).

Reference set (4 entries):
## Input GET /values?readout=pIC50&system=Norepinephrine transporter (Rattus norvegicus, UniProt Q9WTR4)&item= c1ccc2c(CC3CCNCC3)c[nH]c2c1
## Output 5.82

## Input Note, next up: c1ccc(-c2[nH]c3ccccc3c2CCC2CCNCC2)cc1
## Output 5.82

## Input Same thing, different compound: c1ccc(Cn2cc(CCC3CCNCC3)c3ccccc32)cc1
## Output 5.30

## Input Consider next the compound COc1ccc2[nH]cc(CCC3CCNCC3)c2c1 in the same way.
## Output 5.52

Further cases:
## Input Notebook: pull reported pIC50 for Norepinephrine transporter (Rattus norvegicus, UniProt Q9WTR4), entry Clc1ccc2[nH]cc(CCC3CCNCC3)c2c1
## Output 6.19

## Input Do the same for Clc1ccc2[nH]cc(CC3CCNCC3)c2c1 please
## Output 5.74

## Input What do you get for Cn1cc(CCC2CCNCC2)c2ccccc21 ?
## Output 5.89

## Input Can you handle COc1ccc2[nH]cc(CC3CCNCC3)c2c1 next?
## Output 5.05

## Input And then Oc1ccc2c(CCC3CCNCC3)c[nH]c2c1 , what is it?
## Output 6.22

## Input // next record c1ccc2c(CCCC3CCNCC3)c[nH]c2c1
## Output 6.30

## Input What do you get for Brc1ccc2[nH]cc(CC3CCNCC3)c2c1 ?
## Output 6.22

## Input # iterate: c1ccc2c(CCC3CCNCC3)c[nH]c2c1
## Output 5.80
